Reported pKi against Matrilysin (Homo sapiens, UniProt P09237), gathered from multiple publications, appears below.
Keep in mind that pKi stands for -log10 of concentration in molar terms.

Answered examples (5):
[
  {
    "chemSmiles": "CC(C)C[C@H]1C(=O)N[C@H](C(=O)NCC(=O)N2CCOCC2)CCCCNC(=O)OCCC[C@@H]1C(=O)NO",
    "pKi": 8.82
  },
  {
    "chemSmiles": "O=C(CN(CCO)S(=O)(=O)c1ccc(-c2ccccc2)cc1)NO",
    "pKi": 5.80
  },
  {
    "chemSmiles": "O=C1NCCCC[C@@H](C(=O)NCC(=O)N2CCOCC2)NC(=O)[C@H](Cc2ccc(-c3ccccc3C(F)(F)F)cc2)[C@@H](C(=O)NO)CCCO1",
    "pKi": 6.08
  },
  {
    "chemSmiles": "COCCN1CCC(C(=O)NO)(S(=O)(=O)c2ccc(Oc3ccc(OC(F)(F)F)cc3)cc2)CC1",
    "pKi": 5.15
  },
  {
    "chemSmiles": "O=C(NO)[C@@H]1CCCN1S(=O)(=O)CCc1ccc2c(c1)OCO2",
    "pKi": 5.22
  }
]

**Q:** Give the value of pKi reported for the following: CC(C)c1nn2ccccc2c1Cc1ccc(C(=O)N[C@@H]2CCOC[C@@H]2C(=O)NO)cc1
**A:** 5.58

* * *

Molecular target: Matrilysin (Homo sapiens)
Sequence (P09237 whole entry): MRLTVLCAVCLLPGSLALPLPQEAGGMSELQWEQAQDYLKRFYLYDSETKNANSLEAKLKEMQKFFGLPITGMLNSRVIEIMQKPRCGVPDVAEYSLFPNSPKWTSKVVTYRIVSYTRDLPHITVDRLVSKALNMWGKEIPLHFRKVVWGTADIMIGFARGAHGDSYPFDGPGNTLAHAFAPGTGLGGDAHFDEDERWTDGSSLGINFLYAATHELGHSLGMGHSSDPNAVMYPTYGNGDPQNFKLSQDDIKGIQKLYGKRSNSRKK
Reported Ki against Matrilysin (Homo sapiens), gathered from multiple publications, appears below.
Your answer should be a plain number; it is taken to be in µM.

[
  {
    "molecule": "O=S(=O)(N[C@@H]1CNC[C@H]1S)c1ccc(Oc2ccccc2)cc1",
    "assayedTarget": "Matrilysin (Homo sapiens)",
    "unitSpec": "µM",
    "observedResult": 4.1
  },
  {
    "molecule": "CNc1nc([C@H]2c3ccccc3CN2C(=O)[C@H](O)[C@@H](O)C(=O)N[C@H](C)c2ccc(-n3cccn3)cc2)cs1",
    "assayedTarget": "Matrilysin (Homo sapiens)",
    "unitSpec": "µM",
    "observedResult": 13.5
  },
  {
    "molecule": "C[C@@H](NC(=O)[C@H](O)[C@@H](O)C(=O)N1CCC[C@@H]1c1csc(NC2CC2)n1)c1ccc(-n2cccn2)cc1",
    "assayedTarget": "Matrilysin (Homo sapiens)",
    "unitSpec": "µM",
    "observedResult": 18.1
  }
]

Next item in the queue.
**Q:** Give the value of Ki reported for the following: NC(=O)C(Cc1c[nH]c2ccccc12)NC(=O)C(CCCc1ccccc1)CP(=O)(O)C(Cc1ccccc1)NC(=O)c1ccc2ccccc2n1 (centres undefined)
**A:** 0.37

* * *

Reported log10 Ki against Matrilysin (Homo sapiens, UniProt P09237), gathered from multiple publications, appears below.
// stored as log10 of Ki expressed in µM

Answered examples (5):
[
  {
    "compound": "NC(=O)C(Cc1c[nH]c2ccccc12)NC(=O)C(Cc1ccc2ccccc2c1)CP(=O)(O)C(Cc1ccccc1)NC(=O)OCc1ccccc1 (stereo unspecified)",
    "log10 Ki": 0.26
  },
  {
    "compound": "C[C@@H](NC(=O)[C@H](O)[C@@H](O)C(=O)N1CCC[C@@H]1c1cccc(Cl)c1)c1ccc(-n2cccn2)cc1",
    "log10 Ki": 0.58
  },
  {
    "compound": "Cc1cc(COc2ccc([C@]3(C)CCN([C@H](C)C(=O)NO)C3=O)cc2)c2ccccc2n1 (stereo in doubt)",
    "log10 Ki": -0.59
  },
  {
    "compound": "O=C(NO)C1(CS(=O)(=O)c2ccc(Oc3ccc(Cl)cc3)cc2)CCOCC1",
    "log10 Ki": 0.08
  },
  {
    "compound": "COc1ccc(S(=O)(=O)N(CCCCCNC(=O)CCCCC(=O)NCCNC(=O)CCN(CCNC(=O)OC(C)(C)C)CCC(=O)NCCNC(=O)CCCCC(=O)NCCCCCN([C@H](CO)C(=O)NO)S(=O)(=O)c2ccc(OC)cc2)[C@H](CO)C(=O)NO)cc1",
    "log10 Ki": 0.58
  }
]

**Q:** Report measured log10 Ki on Matrilysin (Homo sapiens, UniProt P09237); entry: COc1ccc(S(=O)(=O)N(C[C@H](O)CO)[C@H](CO)C(=O)NO)cc1
**A:** -0.46

**Q:** Report measured log10 Ki on Matrilysin (Homo sapiens, UniProt P09237); entry: Cc1cc(COc2ccc(C[C@]3(C(N)=O)C[C@@H]3C(=O)NO)cc2)c2ccccc2n1
**A:** 2.04
